Counter-ions that a name gives are not always drawn.
Target or system SCD (stromelysin-1 catalytic domain) (Homo sapiens, UniProt P08254): recorded IC50 listed per item.
readout-label: IC50 (nM)

Answered examples (2):
CC(CC(=O)O)CC(=O)c1ccc(N2CCC(c3ccccc3)CC2)cc1 (racemic) [Example 7]; 400
O=C(O)CCC(=O)c1ccc(N2CCC(c3ccccc3)CC2)cc1 [potassium salt]; 80

I: O=C(O)CCC(=NOCc1ccccc1)c1ccc(N2CCC(c3ccccc3)CC2)cc1 [Example 5]
II: O=C(O)CCC(=NO)c1ccc(N2CCC(c3ccccc3)CC2)cc1 [Example 4]
Prompt: Recorded IC50 values differ for I and II ; which one is higher? Mark your selection by writing its label.
Response: I
(I: 2900 nM, II: 20 nM)
